// half-life lookup, one value per entry
protocol.details: Hydrolysis to metronidazole in human plasma (in vitro)
Type: in vitro ADME
condition.details: 80% plasma; 80% human plasma, pH 7.4, 37° C; read-out: t1/2 in human plasma
// note: answer is a bare numeric in min

• CCCNCC(=O)OCCn1c([N+](=O)[O-])cnc1C [N--Propylglycinate] = 8

# input molecule: Cc1ncc([N+](=O)[O-])n1CCOC(=O)CN [Glycinate] ; wanted: its half-life
41

Please answer likewise for Cc1ncc([N+](=O)[O-])n1CCOC(=O)CCN
207

Please answer likewise for Cc1ncc([N+](=O)[O-])n1CCOC(=O)CN1CCN(C)CC1 [4-Methyl-1-piperazinoacetate]
523

Please answer likewise for Cc1ncc([N+](=O)[O-])n1CCOC(=O)CN(C)C [metronidazole N,N-dimethylglycinate]
12
